Where do these numbers come from? They come from the supplement of paper PMC10567573.

B1: CDS2 (parent)
chain: LIVVTQSHLVIHNLFEGMIWFIVP

# Variants of: B1
# assay-text: protein stability index of a GFP-peptide fusion (GPS, HEK-293T) (PSI 1-6); higher = more stable;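 also: lentivirally expressed fusions sorted by FACS into six bins by GFP to DsRed ratio, PSI derived from sequencing read proportions per bin multiplied by bin number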
# assay-setup: c terminus: a fixed tail appended
property: protein stability index

1. Q6R; 1.46
2. P24D; 2.06
3. V3N; 2.96
4. V23C; 3.47
5. M18Q; 2.68
6. F21I; 3.28
7. I2H; 3.16
8. V23A; 2.36
9. W20P; 2.6
10. L1R; 3.84
11. E16N; 3.06
12. V3K; 3.44
13. V10H; 2.88
14. I11R; 2.2
15. V4N; 3.21
16. S7G; 3.76
17. V10G; 1.83
18. G17Y; 1.68
19. Q6L; 4.3
20. S7Y; 3.16
21. E16G; 2.9
22. V3S; 3.43
